Biological target: T1, (hRBM10-ZF)x2 (Homo sapiens, UniProt P98175 212-243)
T1 chain: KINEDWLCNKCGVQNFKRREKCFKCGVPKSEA
Experiment: BLI; ITC: 50 mM Tris pH 7.5, 150 mM NaCl, 1 mM DTT, 0.1 mM ZnCl2, 25 °C; BLI: 50 mM Tris pH 7.5, 150 mM NaCl, 1 mM DTT, 0.1% BSA, 0.02% Tween, 30 °C
Details: protein: recombinant; tags: GST cleaved (HRV-3C); label: 5' biotin
Assignment: determine reported Kd for the given binders.
Could you give me the number in nM? Just the number is fine.

input: For the binder AAAGGCGGCAAA (ssRNA) [(GGC)x2 biotin] , report Kd.
output: 2600

input: Supply reported Kd belonging to this binder: AAAGGGGGGAAA (ssRNA) [(GGG)x2 biotin]
output: 300

input: Hello, please tell me recorded Kd for this one: AAAGGAGGAAAA (ssRNA) [(GGA)x2 biotin]
output: 1400

input: Give recorded Kd. AAAGGUGGUAAA (ssRNA) [(GGU)x2 biotin]
output: 500
